measurement-protocol: Rat pharmacokinetic experiment
Format: in vivo
condition-details: rat, plasma, po; male SD rats, 3 mg/kg
Catalogue of Cmax values

compound: Cc1nnn(-c2ccc(C(F)F)cc2)c1COc1ccc(N2CCN3CCNC(=O)[C@@H]3C2)cn1
Cmax [ng/mL]: 2050
--
compound: Cc1nnn(-c2ccc(C(F)F)cc2)c1COc1ccc(N2CC(C(=O)N3CCOCC3)C2)nn1
Cmax [ng/mL]: 3890
--
compound: Cc1nnn(-c2ccc(C(F)F)cc2)c1COc1ccc(N2CC(C(=O)NC(C)C)C2)nn1
Cmax [ng/mL]: 3020
--
compound: O=C1NCCN2CCN(c3ccc(OCc4c(Cl)nnn4-c4ccc(C(F)F)cc4)nn3)C[C@@H]12
Cmax [ng/mL]: 2670
--
compound: Cc1nnn(-c2ccc(C(F)F)cc2)c1COc1ccc(N2CC(=O)N3CCC[C@H]3C2)nn1
Cmax [ng/mL]: 2700
--
compound: Cc1nnn(-c2ccc(C(F)F)cc2)c1COc1ccc(N2CCN(C3CC3)C(=O)C2)nn1
Cmax [ng/mL]: 1780
--
compound: Cc1nnn(-c2ccc(C(F)F)cc2)c1COc1cnc(N2CCNC(=O)C2)cn1
Cmax [ng/mL]: 3180
--
compound: Cc1nnn(-c2ccc(C(F)F)cc2)c1COc1ccc(N2CC(=O)NC(C)C2)nn1 (centres unmarked)
Cmax [ng/mL]: 1510

====

// reported pKi for each item listed
tested-on: human α5β3γ2 receptors (α5-GABAA receptor) (Homo sapiens (Human), UniProt P18507+P31644)
measurement-protocol: 3H-flunitrazepam competition binding, human α5β3γ2 GABAA receptor
condition-details: HEK293 cell membranes, 1 nM 3H-flunitrazepam; read-out: α5-GABAAR Ki
pKi: −log10 of the molar value.
observed-property: pKi

compound: Cc1nnn(-c2ccc(C(F)F)cc2)c1COc1ccc(N2CCN3c4ncccc4NC(=O)[C@@H]3C2)nn1
measured-number: 9.10
//
compound: Cc1nnn(-c2ccc(C(F)F)cc2)c1COc1ccc(N2CCN3CC(=O)NC(=O)[C@@H]3C2)nn1
measured-number: 8.31
//
compound: Cc1nnn(-c2ccc(C(F)F)cc2)c1COc1ccc(N2CC(C(=O)N3CCOCC3)C2)cn1
measured-number: 8.21
//
compound: CCNC(=O)C12CC(CN1c1ccc(OCc3c(C)nnn3-c3ccc(C(F)F)cc3)nn1)C2
measured-number: 8.90
//
compound: Cc1nnc(C2CN(c3ccc(OCc4c(C)nnn4-c4ccc(C(F)F)cc4)nn3)C2)o1
measured-number: 8.53
//
compound: Cc1nnn(-c2ccc(C(F)F)cc2)c1COc1ccc(N2CCN3CC(C4CC4)NC(=O)[C@@H]3C2)nn1 (single isomer, unassigned) [Example 204]
measured-number: 8.64
//
compound: Cc1nnn(-c2ccc(C(F)F)cc2)c1COc1ccc(N2CC(=O)N3CCC[C@H]3C2)nn1
measured-number: 8.91

====

Entries and their measured Ki follow.
tested-on: human α5β3γ2 receptors (α5-GABAA receptor) (Homo sapiens (Human), UniProt P18507+P31644)
measurement-protocol: 3H-flunitrazepam competition binding, human α5β3γ2 GABAA receptor
condition-details: HEK293 cell membranes, 1 nM 3H-flunitrazepam; read-out: α5-GABAAR Ki
observed-property: Ki

compound: Cc1nnn(-c2ccc(C(F)F)cc2)c1COc1ccc(N2CCN(C3CCOC3)C(=O)C2)nn1 (stereo not shown) [Example 58]
tested-on: human α5β3γ2 receptors (α5-GABAA receptor) (Homo sapiens (Human), UniProt P18507+P31644)
result: 1.85 nM
//
compound: Cc1nnn(-c2ccc(F)cc2)c1COc1ccc(N2CCNC(=O)C2)nn1 [Example 76]
tested-on: human α5β3γ2 receptors (α5-GABAA receptor) (Homo sapiens (Human), UniProt P18507+P31644)
result: 2.87 nM
//
compound: Cc1nnn(-c2ccc(C(F)F)cc2)c1COc1ccc(N2CCN(c3cnn(C(F)F)c3)C(=O)C2)nn1 [Example 113]
tested-on: human α5β3γ2 receptors (α5-GABAA receptor) (Homo sapiens (Human), UniProt P18507+P31644)
result: 1.17 nM
//
compound: Cc1nnn(-c2ccc(C(F)F)cc2)c1COc1ccc(N2CC(=O)NC3(CC3)C2)nn1 [Example 8]
tested-on: human α5β3γ2 receptors (α5-GABAA receptor) (Homo sapiens (Human), UniProt P18507+P31644)
result: 0.89 nM
//
compound: Cc1nnn(-c2ccc(C(F)F)cc2)c1COc1ccc(N2CCN(C)C(=O)C2)cn1 [Example 22]
tested-on: human α5β3γ2 receptors (α5-GABAA receptor) (Homo sapiens (Human), UniProt P18507+P31644)
result: 2.69 nM
//
compound: Cc1nnn(-c2ccc(C(F)F)cc2)c1COc1ccc(N2CCN(CCn3cccn3)C(=O)C2)nn1 [Example 138]
tested-on: human α5β3γ2 receptors (α5-GABAA receptor) (Homo sapiens (Human), UniProt P18507+P31644)
result: 2.11 nM
//
compound: Cc1nnn(-c2ccc(C(F)F)cc2)c1COc1ccc(N2CCN3C(=O)COC[C@@H]3C2)nn1 [Example 9]
tested-on: human α5β3γ2 receptors (α5-GABAA receptor) (Homo sapiens (Human), UniProt P18507+P31644)
result: 1.46 nM

Taken from patent US20250136581A1.
